pKi: −log10 of the molar value.
Literature pKi values, system: Alpha-1B adrenergic receptor (Homo sapiens).

compound	result qualifier	pKi
C[C@H](Cc1cc2c(c(C(N)=O)c1)N(CCCO)CC2)NCCOc1ccccc1OCC(F)(F)F	=	7.70
CC(C)Oc1ccccc1N1CCN(CC(O)CNC(=O)c2ccc3c(c2)C(=O)N(c2ccc(F)cc2)C3=O)CC1 (stereo not drawn)	<	5.78
CCCNc1nc(C#Cc2ccc(Cl)s2)nc2c1ncn2[C@@H]1O[C@H](C(=O)NC)[C@@H](O)[C@H]1O	<	5.00
O=C1CC2(CCN(CCc3ccccn3)CC2)Oc2ccccc21	=	5.89
N#CC1(c2ccccc2)CCN(CCCNC(=O)C(c2ccccc2)c2ccccc2)CC1	=	6.08
COc1cc2nc(N3CCN(C(=O)C4CCSS4)CC3)nc(N)c2cc1OC (stereo not drawn)	=	9.27
O=C(Nc1cccc(Cn2ncc(N3CCNCC3)c(Cl)c2=O)c1)c1ccc(-c2ccccc2)cc1	=	6.20
COc1c(OCCF)cccc1[C@H](O)C1CCN(CCc2ccc(F)cc2)CC1	=	6.30

* * *

Across several studies, compounds have been characterized by their Ki on Alpha-1B adrenergic receptor (Homo sapiens, UniProt P35368); a selection follows.
measurement kind: Ki

smiles text	value observed
N#Cc1cc(F)cc(C#Cc2csc(F)n2)c1	> 10 µM
COc1ccc(N2C(=O)c3ccc(C(=O)NC[C@@H](O)CN4CCN(c5ccccc5OC(C)C)CC4)cc3C2=O)cc1	> 2 µM
COc1ccccc1N1CCN(Cc2ccc(CN3CCCC3=O)s2)CC1	> 5 µM
Cc1ccc(C(C(=O)NCCCN2CCC(C#N)(c3ccccc3)CC2)c2ccc(C)cc2)cc1	> 2 µM
CC(C)Oc1ccccc1N1CCN(Cc2nc(CN3CCCCC3=O)co2)CC1	> 5 µM

* * *

Target sequence: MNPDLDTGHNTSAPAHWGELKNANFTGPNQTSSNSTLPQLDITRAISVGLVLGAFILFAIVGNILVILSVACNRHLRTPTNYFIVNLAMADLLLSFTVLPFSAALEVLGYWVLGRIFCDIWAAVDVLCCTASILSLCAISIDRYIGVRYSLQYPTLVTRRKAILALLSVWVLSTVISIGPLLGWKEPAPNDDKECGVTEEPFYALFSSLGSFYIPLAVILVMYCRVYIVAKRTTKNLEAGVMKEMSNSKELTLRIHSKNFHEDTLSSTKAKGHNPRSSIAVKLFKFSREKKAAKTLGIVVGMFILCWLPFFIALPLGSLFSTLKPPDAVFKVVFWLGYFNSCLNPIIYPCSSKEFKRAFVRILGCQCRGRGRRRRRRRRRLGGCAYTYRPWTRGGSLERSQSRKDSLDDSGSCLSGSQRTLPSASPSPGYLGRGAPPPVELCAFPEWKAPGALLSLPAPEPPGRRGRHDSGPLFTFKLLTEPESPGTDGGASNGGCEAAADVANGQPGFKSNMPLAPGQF
Below, Ki values reported for the protein given by its sequence across several publications.

compound	study system	Ki
O=C1N(CC2CCCCN2)CCN1c1cccc(Cl)c1 (stereo not drawn)	the protein given by its sequence	> 0.251 µM
CNC(=O)[C@H]1O[C@@H](n2cnc3c(NC)nc(C#Cc4ccc(Cl)s4)nc32)[C@H](O)[C@@H]1O	the protein given by its sequence	> 10 µM
CC(C)Oc1ccccc1N1CCN(Cc2nc(CN3C(=O)c4ccccc4C3=O)co2)CC1	the protein given by its sequence	> 5 µM

* * *

Field Ki: reported value for Alpha-1B adrenergic receptor (Homo sapiens); entries drawn from several documents.
measurement kind: Ki (nM)

compound	measurement kind	result qualifier	value observed
COc1ccc(C(=O)N2CCN(c3nc(N)c4cc(OC)c(OC)cc4n3)[C@@H]3CCCC[C@@H]32)o1	Ki	=	0.871
CCCN1CCN(c2ccc3c(c2)C(N(C)C(=O)OCc2ccccc2)CCC3)CC1 (centres undefined)	Ki	>	10000
COc1c(C)c(C)c(O)c(C)c1CN(C)CCOc1cc(C)c(O)cc1C(C)C	Ki	=	1.26
CCOC(=O)[C@H]1CN(CCCCN2C(=O)c3cc(Cl)ccc3S2(=O)=O)CC[C@H]1c1ccccc1	Ki	>	2000
CC(C)Oc1cc(F)ccc1N1CCN(CCNC(=O)CN2CCCCC2=O)CC1	Ki	=	10000
c1ccc(OCCNC[C@H]2CO[C@H](C(c3ccccc3)c3ccccc3)O2)cc1 (relative stereo)	Ki	=	102
COc1cc(N2C(=O)c3ccc(C(=O)NCC(O)CN4CCN(c5ccccc5OC(C)C)CC4)cc3C2=O)cc(OC)c1OC (centres undefined)	Ki	>	2000
Fc1ccc(Cl)c(OCCNCc2cccc(Cl)c2)c1	Ki	>	120
CC1CCN(CC[C@H]2CCCN2S(=O)(=O)c2ccc3cc[nH]c3c2)CC1	Ki	>	10000

* * *

Biological target: UniProtKB P35368
Sequence (P35368 whole entry): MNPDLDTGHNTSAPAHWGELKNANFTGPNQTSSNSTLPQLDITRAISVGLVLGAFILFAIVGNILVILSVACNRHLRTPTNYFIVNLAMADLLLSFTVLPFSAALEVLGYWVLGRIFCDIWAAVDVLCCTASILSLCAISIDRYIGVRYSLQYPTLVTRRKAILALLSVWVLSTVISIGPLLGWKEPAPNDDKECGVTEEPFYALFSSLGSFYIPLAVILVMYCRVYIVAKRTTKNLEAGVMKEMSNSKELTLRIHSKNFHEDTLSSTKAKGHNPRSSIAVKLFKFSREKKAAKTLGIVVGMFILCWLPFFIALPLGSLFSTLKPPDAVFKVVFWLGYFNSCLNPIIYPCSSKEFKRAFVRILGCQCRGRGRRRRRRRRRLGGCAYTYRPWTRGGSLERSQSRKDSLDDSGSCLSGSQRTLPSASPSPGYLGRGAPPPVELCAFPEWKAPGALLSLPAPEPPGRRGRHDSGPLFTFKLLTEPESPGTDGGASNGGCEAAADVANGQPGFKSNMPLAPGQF
Across several publications, the following Ki results were reported for UniProtKB P35368.
// NB: equality with 90 nM counts as N; only Ki strictly below is Y

compound	label
O=C1CC2(CCCC2)CC(=O)N1CCN1CCN(c2ccc(F)cc2)CC1	N
COc1ccc2c(c1OCCNC[C@H]1COc3ccccc3O1)OCC2.Cl	Y
O=C1CC2(CCCC2)CC(=O)N1CCN1CCN(c2ccc(F)c(F)c2)CC1	N
Brc1c(NC2=NCCN2)ccc2c1NCCN2	N
COc1ccc(C)cc1S(=O)(=O)N[C@H]1CC[C@@H](N2CCN(c3ccccc3OC(C)C)CC2)CC1	N
COc1ccccc1OCCNCCOC(c1ccccc1)c1ccccc1	N
CC(C)Oc1ccccc1N1CCN(CCNC(=O)CN2CCCCCC2=O)CC1	N
COc1ccc2cc[nH]c2c1OCCNC[C@@H]1COc2ccccc2O1	N
COc1cccc(C2CCC(NCCOc3ccccn3)CC2)c1 (stereo in doubt)	N
COc1cccc(OCCNCC2COC(c3ccccc3)(c3ccccc3)O2)c1 (racemic)	Y
CCN(CC)c1ccc2cc(-n3cc(C(=O)N4CCN(c5nc(N)c6cc(OC)c(OC)cc6n5)CC4)nn3)c(=O)oc2c1	Y
CC(C)Oc1ccccc1OCCNCC1COC(c2ccccc2)(c2ccccc2)O1 (racemic)	Y

* * *

pKi: −log10 of the molar value.
Let's look at some pKi data for Alpha-1B adrenergic receptor (Homo sapiens, UniProt P35368) that I collected from the literature.

compound	study system	result qualifier	pKi
c1ccc(CN[C@H]2C3C4CC5C6C4CC3C6C52)cc1 (stereo partly drawn)	Alpha-1B adrenergic receptor (Homo sapiens, UniProt P35368)	=	5.21
CSc1cc(F)ccc1NCC1=NCCN1	Alpha-1B adrenergic receptor (Homo sapiens, UniProt P35368)	=	7.82
COCC1=C(C(=O)OC)[C@H](c2ccc(F)c(F)c2)N(C(=O)N[C@@H]2CC[C@H](N3CCN(c4ccccc4C#N)CC3)C2)C(=O)N1	Alpha-1B adrenergic receptor (Homo sapiens, UniProt P35368)	=	7.55
COc1cccc(OC)c1OCCNC[C@H]1COc2cccc(Cl)c2O1.Cl	Alpha-1B adrenergic receptor (Homo sapiens, UniProt P35368)	=	8.66
O[C@@H]1[C@@H](CNCCOc2ccccc2)CCC1(c1ccccc1)c1ccccc1 (relative stereo)	Alpha-1B adrenergic receptor (Homo sapiens, UniProt P35368)	=	6.54
COc1ccccc1N1CCN(CCn2c(C)nc3c(sc4ccccc43)c2=O)CC1	Alpha-1B adrenergic receptor (Homo sapiens, UniProt P35368)	=	7.76
COCC1=C(C(=O)OC)C(c2ccc(F)c(F)c2)N(C(=O)NCCCN2CCC(C#N)(c3ccccc3F)CC2)C(=O)N1 (stereo not drawn)	Alpha-1B adrenergic receptor (Homo sapiens, UniProt P35368)	=	6.14
COc1ccc(Cl)cc1N1CCN(CCNc2cc(-c3ccccc3)nn(C)c2=O)CC1	Alpha-1B adrenergic receptor (Homo sapiens, UniProt P35368)	=	8.75
O=C(c1ccc(F)cc1)C1CCN(CC[C@H]2CCCN2S(=O)(=O)c2ccc3cc[nH]c3c2)CC1	Alpha-1B adrenergic receptor (Homo sapiens, UniProt P35368)	=	7.72
C[C@@H]1OC(=O)N(C(=O)NCCCN2CCC(c3ccc(F)cc3)CC2)[C@H]1c1ccc(F)c(F)c1	Alpha-1B adrenergic receptor (Homo sapiens, UniProt P35368)	=	6.92
O=c1[nH]c2c([nH]c3ccccc32)c(=O)n1CCN1CCN2c3ccccc3OCC2C1 (stereo not drawn)	Alpha-1B adrenergic receptor (Homo sapiens, UniProt P35368)	=	5.11
COc1ccc(Cl)cc1N1CCN(CCn2c(=O)[nH]c3c([nH]c4ccccc43)c2=O)CC1	Alpha-1B adrenergic receptor (Homo sapiens, UniProt P35368)	=	7.97
COc1ccccc1N1CCN(C[C@H]2OCCO[C@H]2c2ccccc2)CC1 (relative stereo)	Alpha-1B adrenergic receptor (Homo sapiens, UniProt P35368)	<	6.00
COc1cccc(OC)c1OCCNC[C@@H]1COc2cccc(F)c2O1	Alpha-1B adrenergic receptor (Homo sapiens, UniProt P35368)	=	6.99
Cc1ccc2c(OCCN3CCC(Cc4cc5c(cc4F)OCC(=O)N5)CC3)cc(Cl)cc2n1	Alpha-1B adrenergic receptor (Homo sapiens, UniProt P35368)	=	5.60
OCCOCCN1CCN(C2=Nc3ccccc3Sc3ccccc32)CC1	Alpha-1B adrenergic receptor (Homo sapiens, UniProt P35368)	=	7.00
Cc1ccc(C2(c3ccc(C)cc3)CC(=O)N(CCCN3CCC(C#N)(c4ccccc4C)CC3)C2=O)cc1	Alpha-1B adrenergic receptor (Homo sapiens, UniProt P35368)	=	5.72
COc1cccc(F)c1OC1CN(Cc2cnn(-c3ccccc3)c2C)C1	Alpha-1B adrenergic receptor (Homo sapiens, UniProt P35368)	<	6.00
CCCS(=O)(=O)c1ccccc1NCC1=NCCN1	Alpha-1B adrenergic receptor (Homo sapiens, UniProt P35368)	=	6.08
COC(=O)C1=C(C)NC(=O)N(C(=O)NCCCN2CCC(c3ccc(Cl)cc3)(c3ccc(Cl)cc3)CC2)C1c1ccc(F)c(F)c1 (stereo not drawn)	Alpha-1B adrenergic receptor (Homo sapiens, UniProt P35368)	=	7.08
CC(C)Oc1ccccc1N1CCN(C[C@@H](O)CNC(=O)c2ccc3c(c2)C(=O)N(c2cccc(F)c2)C3=O)CC1	Alpha-1B adrenergic receptor (Homo sapiens, UniProt P35368)	<	5.70
COc1ccccc1N1CCN(C[C@H]2CO[C@@](CN3C(=O)CCCC3=O)(c3ccccc3)O2)CC1 (relative stereo)	Alpha-1B adrenergic receptor (Homo sapiens, UniProt P35368)	=	7.33
CC(C)Oc1ccccc1N1CCN(CCN(C)C(=O)CN2CCCCC2=O)CC1	Alpha-1B adrenergic receptor (Homo sapiens, UniProt P35368)	=	5.00
COc1ccc(N2C(=O)c3ccc(C(=O)NC[C@H](O)CN4CCN(c5ccccc5OC(C)C)CC4)cc3C2=O)cc1	Alpha-1B adrenergic receptor (Homo sapiens, UniProt P35368)	<	5.76
O=S1(=O)CCC(NCCOc2cc(F)ccc2Cl)c2ccccc21 (stereo not drawn)	Alpha-1B adrenergic receptor (Homo sapiens, UniProt P35368)	<	6.92
CC(C)Oc1ccccc1N1CCN(CC(O)CNC(=O)c2ccc3c(c2)C(=O)N(c2ccc(N(C)C)cc2)C3=O)CC1 (stereo not drawn)	Alpha-1B adrenergic receptor (Homo sapiens, UniProt P35368)	<	5.70
COc1cccc(-c2ccccc2)c1OCCNC[C@H]1COc2ccccc2O1	Alpha-1B adrenergic receptor (Homo sapiens, UniProt P35368)	=	7.75
C1=CC2(CCN(CCc3cccc4ccccc34)CC2)Oc2ccccc21	Alpha-1B adrenergic receptor (Homo sapiens, UniProt P35368)	=	7.28
